method notes: in vivo
reported conditions: male, Sprague-Dawley, rat, po, 8 g/kg, Tmax, sham group (SG) rats, oral administration of QSKL, plasma, mean ± SD, n = 6
measure name: Tmax (min)
Just the number please, in min, no unit attached.

Some solved cases for reference:
# compound, Tmax [min]
records = [
    ("O=C(/C=C/c1ccc(O[C@@H]2O[C@H](CO)[C@@H](O)[C@H](O)[C@H]2O)cc1)c1ccc(O)cc1O [isoliquiritin]", 21.6),
    ("COC[C@@]12CC[C@H](OC)[C@]34C(C([C@H](OC)[C@H]13)[C@]1(OC(C)=O)[C@H]3[C@@H](OC(=O)c5ccccc5)[C@](O)(C[C@H]34)[C@@H](OC)[C@@H]1O)N(C)C2 [hypaconitine]", 125),
    ("COCC12CCC(OC)C34C5CC6(O)C(OC)C(O)C(O)(C5C6OC(=O)c5ccccc5)C(C(OC)C13)C4N(C)C2 (stereo not shown) [benzoylhypaconine]", 28.8),
]

QUERY: Which measured Tmax value corresponds to COCC12CN(C)C3C4C(OC)C1C3(C(OC)CC2O)C1CC2(O)C(OC)C(O)C4(O)C1C2OC(=O)c1ccccc1 (stereo not shown) [benzoylmesaconine] ?
RESULT: 25.2
